# target: UniProt:Q6UWP7
# test: In vitro acyltransferase assay for ALCAT1 inhibitors
# Format: biochemical
# runParameters: ALCAT1 enzyme activity; triplicates, GraphPad; read-out: IC50
measuredParameter: IC50 (nM)

COc1ccc(Br)cc1C(=O)Nc1cc(-c2nnc(-c3ccco3)o2)ccc1F    24
CCc1ccc(OC)c(C(=O)Nc2cccc(-c3nnc(-c4ccco4)o3)c2)c1    120
COc1c(Br)cc(Br)cc1C(=O)Nc1cccc(-c2nnc(-c3ccco3)o2)c1    48
O=C(Nc1cccc(-c2nnc(-c3ccco3)o2)c1)c1cccc2ccoc12    160
Cc1ccc(F)c(NC(=O)c2cccc(-c3nnc(-c4ccco4)o3)c2)c1    780
CCOc1ccc(Cl)cc1C(=O)Nc1cccc(-c2nnc(-c3ccco3)o2)c1    39
O=C(Nc1cccc(-c2nnc(-c3ccco3)o2)c1)c1cc(Cl)ccc1F    320
CCOc1ccc(F)cc1C(=O)Nc1cccc(-c2nnc(-c3ccco3)o2)c1    67

* * *

# target: UniProt:Q6UWP7
# test: In vitro acyltransferase assay for ALCAT1 inhibitors
# Type: biochemical
# runParameters: 1 μM compound; in vitro enzymatic assay
Listed here are molecules together with their documented inhibition at 1 µM.
measuredParameter: inhibition at 1 µM (%)

O=C(Nc1cc(-c2nnc(-c3ccco3)o2)ccc1F)c1cc(Cl)ccc1OC(F)(F)F [Compound 304]    98
Cc1cccc(C(=O)Nc2cccc(-c3nnc(-c4ccco4)o3)c2)c1F [Compound 190]    80
CCCOc1ccc(C)cc1C(=O)Nc1cccc(-c2nnc(-c3ccco3)o2)c1 [Compound 207]    86
COc1ccc(Cl)cc1NC(=O)c1cccc(-c2nnc(-c3ccco3)o2)c1 [Compound 230]    94
COc1ccc(C(F)(F)F)cc1C(=O)Nc1cc(-c2nnc(-c3ccco3)o2)ccn1 [Compound 396]    96
CCCOc1ccc(F)cc1C(=O)Nc1cc(-c2nnc(-c3ccco3)o2)ccc1F [Compound 210]    97
O=C(Nc1cc(Cl)cc(-c2nnc(-c3ccco3)o2)c1)c1ccccc1F [Compound 295]    37
O=C(Nc1cc(-c2nnc(-c3ccco3)o2)ccc1F)c1cc(Cl)ccc1Cl [Compound 347]    94

* * *

# target: ALCAT1 (Homo sapiens (Human), UniProt Q6UWP7)
# Sequence (Q6UWP7 whole entry): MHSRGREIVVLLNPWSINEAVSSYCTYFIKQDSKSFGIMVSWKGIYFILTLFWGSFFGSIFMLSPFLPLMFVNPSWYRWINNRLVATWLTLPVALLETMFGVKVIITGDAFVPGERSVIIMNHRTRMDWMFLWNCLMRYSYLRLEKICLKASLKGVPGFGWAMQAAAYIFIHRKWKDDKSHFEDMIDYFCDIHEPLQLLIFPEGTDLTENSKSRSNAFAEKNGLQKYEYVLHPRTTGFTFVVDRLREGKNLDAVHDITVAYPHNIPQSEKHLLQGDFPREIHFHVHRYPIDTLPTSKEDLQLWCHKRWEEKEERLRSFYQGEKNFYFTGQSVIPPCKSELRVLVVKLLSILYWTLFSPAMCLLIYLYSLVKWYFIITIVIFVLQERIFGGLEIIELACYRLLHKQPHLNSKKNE
# test: In vitro acyltransferase assay for ALCAT1 inhibitors
# Format: biochemical
# runParameters: ALCAT1 enzyme activity; triplicates, GraphPad; read-out: IC50
pIC50: −log10 of the molar value.
pIC50 for assorted compounds
measuredParameter: pIC50

O=C(Nc1cc(-c2nnc(-c3ccco3)o2)ccc1F)c1ccccc1OCC(F)(F)F    7.19
O=C(Nc1cc(-c2nnc(-c3ccco3)o2)ccc1F)c1cc(F)ccc1OCC(F)(F)F    7.34
O=C(Nc1cccc(-c2nnc(-c3ccco3)o2)c1)c1ccccc1OCC(F)F    6.70
COc1ccc(C(F)(F)F)cc1C(=O)Nc1cc(-c2nnc(-c3ccco3)o2)ccn1    7.11
CCOc1ccc(Cl)cc1C(=O)Nc1cc(-c2nnc(-c3ccco3)o2)ccc1F    7.72
COc1ccc(OC(F)(F)F)cc1C(=O)Nc1cccc(-c2nnc(-c3ccco3)o2)c1    7.22
CCOc1ccc(CC)cc1C(=O)Nc1cc(-c2nnc(-c3ccco3)o2)ccn1    7.42
COc1ccc([N+](=O)[O-])cc1C(=O)Nc1cccc(-c2nnc(-c3ccco3)o2)c1    6.30
COc1ccc(Cl)cc1C(=O)Nc1cc(-c2nnc(-c3ccco3)o2)ccc1F    7.74
O=C(Nc1cc(-c2nnc(-c3ccco3)o2)ccc1F)c1cc(Cl)ccc1OCC(F)F    7.72
O=C(Nc1cc(-c2nnc(-c3ccco3)o2)ccc1F)c1ccccc1OC(F)F    7.44
COc1cccc(C(=O)Nc2cccc(-c3nnc(-c4ccco4)o3)c2)c1OC    6.33
O=C(Nc1cccc(-c2nnc(-c3ccco3)o2)c1)c1cc(Cl)ccc1OCC(F)(F)F    7.00
O=C(Nc1cc(-c2nnc(-c3ccco3)o2)ccc1F)c1cc(Cl)ccc1OC(F)F    7.68
COc1c(F)cccc1C(=O)Nc1cccc(-c2nnc(-c3ccco3)o2)c1    6.92
CCCOc1ccc(F)cc1C(=O)Nc1cccc(-c2nnc(-c3ccco3)o2)c1    6.96
COc1cccc(C(=O)Nc2cccc(-c3nnc(-c4ccco4)o3)c2)c1    5.62

* * *

# target: ALCAT1 (Homo sapiens (Human))
# test: In vitro acyltransferase assay for ALCAT1 inhibitors
# Format: biochemical
# runParameters: 1 μM compound; in vitro enzymatic assay
Each entry below carries its reported % inh @ 1 μM.
measuredParameter: % inh @ 1 μM (%)

O=C(Nc1cccc(-c2nnc(-c3ccco3)o2)c1)c1ccccc1F [Compound 1]    63
COc1ccc(C(F)(F)F)cc1C(=O)Nc1cccc(-c2nnc(-c3ccco3)o2)c1 [Compound 278]    100
O=C(Nc1cccc(-c2nnc(-c3ccco3)o2)c1)c1cc(OC(F)(F)F)ccc1F [Compound 211]    97
O=C(Nc1cccc(-c2nnc(-c3cnco3)o2)c1)c1ccccc1F [Compound 137]    48
O=C(Nc1cc(-c2nnc(-c3ccco3)o2)ccc1F)c1cc(Cl)ccc1OC(F)(F)F [Compound 304]    96
O=C(Nc1cccc(-c2nnc(-c3ccco3)o2)c1)c1ccccc1OCC(F)F [Compound 275]    99
O=C(Nc1cccc(-c2nnc(-c3ccco3)o2)c1)c1cc(Cl)ccc1OCC(F)(F)F [Compound 225]    97
CCc1ccccc1C(=O)Nc1cccc(-c2nnc(-c3ccco3)o2)c1 [Compound 240]    6
CCCc1ccc(OC)c(C(=O)Nc2cc(-c3nnc(-c4ccco4)o3)ccc2F)c1 [Compound 281]    97
O=C(Nc1cccc(-c2nnc(-c3ccco3)s2)c1)c1ccccc1F [Compound 135]    62
O=C(Nc1cc(-c2nnc(-c3cncs3)o2)ccc1F)c1ccccc1F [Compound 290]    31
O=C(Nc1cccc(-c2nnc(-c3ccco3)o2)c1)c1cc(F)ccc1OCC(F)(F)F [Compound 228]    99
CS(=O)(=O)c1ccccc1C(=O)Nc1cccc(-c2nnc(-c3ccco3)o2)c1 [Compound 248]    50
CCOc1ccc(C)cc1C(=O)Nc1cccc(-c2nnc(-c3ccco3)o2)c1 [Compound 218]    98

* * *

# target: ALCAT1 (Homo sapiens (Human))
# test: In vitro acyltransferase assay for ALCAT1 inhibitors
# Format: biochemical
# runParameters: 1 μM compound; in vitro enzymatic assay
# Protocol: The human ALCAT1 protein were expressed in Spodoptera frugiperda (Sf9) insect cells by using a Bac-to-Bac baculovirus expression system (Invitrogen) according to the manufacturer's instruction. […] The membrane fraction was resuspended in enzymatic buffer that contain 10% glycerol, quantified for protein concentration, aliquoted, and stored at −80° C. […] Compound inhibitors for ALCAT1 enzyme were analyzed by an in vitro enzymatic assay as detailed above. […]
measuredParameter: % inh @ 1 μM (%)

CCCOc1ccc(C)cc1C(=O)Nc1cc(-c2nnc(-c3ccco3)o2)ccc1F    98
O=C(Nc1cccc(-c2nnc(-c3ccco3)o2)c1)c1cccc(C(F)(F)F)c1    42
O=C(Nc1cccc(-c2nnc(-c3ncco3)o2)c1)c1ccccc1F    8
O=C(Nc1cccc(-c2nnc(-c3ccco3)o2)c1)c1cccc2ccoc12    89
CC(C)COc1ccccc1C(=O)Nc1cccc(-c2nnc(-c3ccco3)o2)c1    68
O=C(Nc1cccc(-c2nnc(-c3ccco3)o2)c1)c1ccncc1    46
COc1c(F)cccc1C(=O)Nc1cccc(-c2nnc(-c3ccco3)o2)c1    94
O=C(Nc1cc(-c2nnc(-c3ccno3)o2)ccc1F)c1ccccc1F    48
Cc1ccc(NC(=O)c2ccccc2F)cc1-c1nnc(-c2ccco2)o1    36

* * *

# target: ALCAT1 (Homo sapiens (Human))
# test: In vitro acyltransferase assay for ALCAT1 inhibitors
# Format: biochemical
# runParameters: 1 μM compound; in vitro enzymatic assay
Measured % inh @ 1 μM by item
measuredParameter: % inh @ 1 μM

CC(C)c1cccc(C(=O)Nc2cccc(-c3nnc(-c4ccco4)o3)c2)c1 [Compound 277]    23/23%
O=C(Nc1cccc(-c2nnc(-c3ccco3)o2)c1)c1cccc(OC(F)(F)F)c1 [Compound 233]    65%
CCOc1ccc(CC)cc1C(=O)Nc1cccc(-c2nnc(-c3ccco3)o2)c1 [Compound 219]    98%
COc1c(Br)cccc1C(=O)Nc1cccc(-c2nnc(-c3ccco3)o2)c1 [Compound 192]    93%
CCCCOc1ccccc1C(=O)Nc1cc(-c2nnc(-c3ccco3)o2)ccc1F [Compound 213]    64%
Cc1cc(NC(=O)c2ccccc2F)cc(-c2nnc(-c3ccco3)o2)c1 [Compound 132]    39%
COc1ccc(NC(=O)c2ccccc2F)cc1-c1nnc(-c2ccco2)o1 [Compound 136]    23%
O=C(Nc1cccc(-c2nnc(-c3ccco3)o2)c1)c1cccc(-c2ccccc2)c1 [Compound 238]    23/23%
O=C(Nc1cccc(-c2nnc(-c3ccco3)o2)c1Cl)c1ccccc1F [Compound 297]    83%
O=C(Nc1cc(-c2ncc(-c3ccco3)o2)ccc1F)c1cccnc1F [Compound 288]    59%
Cc1ccc(OCC(F)(F)F)c(C(=O)Nc2cccc(-c3nnc(-c4ccco4)o3)c2)c1 [Compound 224]    97%
COc1cc(NC(=O)c2ccccc2F)cc(-c2nnc(-c3ccco3)o2)c1 [Compound 133]    17%
COc1ccc(Cl)cc1NC(=O)c1cccc(-c2nnc(-c3ccco3)o2)c1 [Compound 230]    89%
O=C(Nc1cccc(-c2nnc(-c3ccco3)o2)c1)c1ccccc1OC(F)F [Compound 273]    96%
